assayed_target: T1, mouse PCSK9 (mouse, UniProt Q80W65 35-694, limits assumed)
T1 construct: also called mPCSK9; msPCK9
T1 sequence (Q80W65 35-694 limits assumed): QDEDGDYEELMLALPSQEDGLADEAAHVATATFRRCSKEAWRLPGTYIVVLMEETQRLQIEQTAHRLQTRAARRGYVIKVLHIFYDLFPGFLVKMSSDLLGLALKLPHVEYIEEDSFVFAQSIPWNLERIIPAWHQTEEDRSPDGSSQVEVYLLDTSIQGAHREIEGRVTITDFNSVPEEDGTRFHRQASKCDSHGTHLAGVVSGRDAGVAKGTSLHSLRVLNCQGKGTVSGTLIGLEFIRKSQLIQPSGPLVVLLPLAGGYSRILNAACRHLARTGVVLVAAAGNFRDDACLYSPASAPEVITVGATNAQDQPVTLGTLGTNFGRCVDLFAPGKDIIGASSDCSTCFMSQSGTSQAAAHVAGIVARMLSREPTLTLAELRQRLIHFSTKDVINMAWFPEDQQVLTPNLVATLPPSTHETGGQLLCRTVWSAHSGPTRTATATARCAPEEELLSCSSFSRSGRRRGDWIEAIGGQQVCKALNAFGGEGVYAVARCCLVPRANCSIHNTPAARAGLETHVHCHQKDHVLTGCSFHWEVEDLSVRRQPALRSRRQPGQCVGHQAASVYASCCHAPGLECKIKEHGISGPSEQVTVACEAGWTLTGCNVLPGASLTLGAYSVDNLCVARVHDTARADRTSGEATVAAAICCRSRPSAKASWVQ
experiment_notes: SPR Biacore 3000, captured IgG, mPCSK9 injected, pH 5.5
Description: These antibodies were expressed and purified for determination of their KD at 7.4 and their KD ratio of pH5.5/pH 7.4, as measured on a surface plasmon resonance Biacore 3000 biosensor equipped with a research-grade sensor chip using HBS-EP running buffer (Biacore AB, Uppsala, Sweden—now GE Healthcare). […] Dissociation was monitored for 5 min. […]
readout_label: koff (s⁻¹)
Numbers only here, please. The scale is s⁻¹.

Incoming: Query (binder): 5L1724H23_6L3 (antibody, V domains shown, Only CDRs printed; Full-length IgG) VH: QVQLVQSGAEVKKPGASVKVSCKASGYTFTSYYMHWVRQAPGQGLEWMGEIHPSGGRTNYNEKFKSRVTMTRDTSTSTVYMELSSLRSEDTAVYYCARERPLYAMDYWGQGTTVTVSS VL: DIQMTQSPSSLSASVGDRVTITCKASQDVHTAVAWYQQKPGKAPKLLIYSASHRYTGVPSRFSGSGSGTDFTFTISSLQPEDIATYYCQQRYSLWRTFGQGTKLEIK ; field requested: koff
Outgoing: 0.121
